study-system: human serum albumin (HSA) (human)
assay-text: SPR Biacore T200, fusion protein captured by anti-VHH antibody, albumin as analyte
So I've got a bunch of binders here, and I need their koff values.
Report the figure along with its unit, number first.

These recorded examples may help you get a feel for the data.
binder: 0065 (other, Single-chain fusion: anti-HSA VHH, linker, relaxin-2 B chain, linker, relaxin-2 A chain; also called fusion protein 0065) EVQLLESGGGLVQPGGSLRLSCAASGFTFLTSCMGWFRQAPGKEREGVSSIYTVGGSTFYTNSVKGRFTISRDNSKNTLYLQMNSLRPEDTAVYYCAAGSPARCRLRDPTTFDYWGQGTLVTVSSGGGGQGGGGQGGGGQGGGGQGGGGQSWMEEVIKLCGRELVRAQIAICGMSTWSGGGSGGSGGGQLYSALANKCCHVGCTKRSLARFC
koff: 0.000797 s⁻¹

binder: 0064 (other, Single-chain fusion: anti-HSA VHH, linker, relaxin-2 B chain, linker, relaxin-2 A chain; also called fusion protein 0064) EVQLLESGGGLVQPGGSLRLSCAASGNTYLTSCMGWFRQAPGKEREGVSSIYTVGGSTFYTNSVKGRFTISRDNSKNTLYLQMNSLQPEDTAVYYCAAGSPARCRLRDPTTFDYWGQGTLVTVSSGGGGQGGGGQGGGGQGGGGQGGGGQSWMEEVIKLCGRELVRAQIAICGMSTWSGGGSGGSGGGQLYSALANKCCHVGCTKRSLARFC
koff: 0.00086 s⁻¹

binder: 0052 (other, Single-chain fusion: anti-HSA VHH, linker, relaxin-2 B chain, linker, relaxin-2 A chain; also called fusion protein 0052) EVQLLESGGGLVQPGGSLRLSCAASGFTFLTSCMGWFRQAPGKEREGVSSIYTVGGSTFYTNSVKGRFTISRDNSKNTLYLQMNSLRAEDTAVYYCAAGSPARCRLRDPTTFDYWGQGTLVTVSSPGPAPGPAPGPAPGPAPGPAPGPAPGPAPGPASWMEEVIKLCGRELVRAQIAICGMSTWSGGGSGGSGGGQLYSALANKCCHVGCTKRSLARFC
koff: 0.000867 s⁻¹

--- query ---
Ask: koff lookup needed for 0051 (other, Single-chain fusion: anti-HSA VHH, linker, relaxin-2 B chain, linker, relaxin-2 A chain; also called fusion protein 0051; molecule 0051) EVQLLESGGGLVQPGGSLRLSCAASGFTFLTSCMGWFRQAPGKEREGVSSIYTVGGSTFYTNSVKGRFTISRDNSKNTLYLQMNSLRAEDTAVYYCAAGSPARCRLRDPTTFDYWGQGTLVTVSSGGGGQGGGGQGGGGQGGGGQGGGGQSWMEEVIKLCGRELVRAQIAICGMSTWSGGGSGGSGGGQLYSALANKCCHVGCTKRSLARFC , thanks.
Result: 0.0011 s⁻¹

Source listed as patent US20250312444A1.
